Target: T1, human LAG-3 expressed on cells (human, UniProt P18627 23-525)
T1 construct: whole, on cells; Treated as one protein; the host cell is named under assay; also called LAG-3-expressing CHO cells; LAG-3-transfected CHO cells
T1 sequence (looked up): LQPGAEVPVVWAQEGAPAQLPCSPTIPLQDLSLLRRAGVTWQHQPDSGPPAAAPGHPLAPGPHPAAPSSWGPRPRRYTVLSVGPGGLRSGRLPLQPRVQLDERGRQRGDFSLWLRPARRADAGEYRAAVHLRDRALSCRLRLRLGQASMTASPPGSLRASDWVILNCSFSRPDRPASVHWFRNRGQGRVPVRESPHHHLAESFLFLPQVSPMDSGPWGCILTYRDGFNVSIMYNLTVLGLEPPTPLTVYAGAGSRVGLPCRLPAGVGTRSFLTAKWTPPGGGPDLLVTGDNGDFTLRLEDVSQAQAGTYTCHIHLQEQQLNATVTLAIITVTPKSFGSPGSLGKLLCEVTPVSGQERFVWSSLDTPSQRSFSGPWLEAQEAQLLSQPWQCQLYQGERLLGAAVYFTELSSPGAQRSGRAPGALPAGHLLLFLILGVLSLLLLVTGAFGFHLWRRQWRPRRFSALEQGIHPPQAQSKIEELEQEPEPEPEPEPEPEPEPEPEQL
Assay: rank of the clone by the competition binding data (test mAb against FITC-labeled murine BAP050 on LAG-3-expressing CHO cells), curve position relative to the chimeric mAb in two experiments
readout-kind: Ranking, Compet. data
Provide a numeric answer; units are not to be included.

binder	Ranking, Compet. data
BAP050-hum04 (antibody, human IgG4 S228P, kappa, V domains shown, humanized IgG4(S228P)/kappa, transient CHO supernatant) VH: EVQLVQSGAEVKKPGATVKISCKVSGFTLTNYGMNWVRQAPGQGLEWMGWINTDTGEPTYADDFKGRFVFSLDTSVSTAYLQICSLKAEDTAVYYCARNPPYYYGTNNAEAMDYWGQGTTVTVSS VL: DIQMTQSPSSLSASVGDRVTITCSSSQDISNYLNWYLQKPGQSPQLLIYYTSTLHLGIPDRFSGSGSGTDFTLTISRLEPEDFAVYYCQQYYNLPWTFGQGTKVEIKR	2

Consider the additional binder presented here.
Problem: Look up Ranking, Compet. data: BAP050-hum12 (antibody, human IgG4 S228P, kappa, V domains shown, humanized IgG4(S228P)/kappa, transient CHO supernatant; also called humanized clone No. 12) VH: QVQLVQSGAEVKKPGASVKVSCKASGFTLTNYGMNWVRQARGQRLEWIGWINTDTGEPTYADDFKGRFVFSLDTSVSTAYLQICSLKAEDTAVYYCARNPPYYYGTNNAEAMDYWGQGTTVTVSS VL: EIVLTQSPDFQSVTPKEKVTITCSSSQDISNYLNWYQQKPGQAPRLLIYYTSTLHLGVPSRFSGSGSGTDFTLTISSLQPEDFATYYCQQYYNLPWTFGQGTKVEIKR
Result: 2
